system: 8226/S myeloma cells; test: MTT growth inhibition, parental 8226 myeloma cells; type: cell-based, human; conditions: Homo sapiens; 8226/S; MTT; read-out: IC50
measurement-name: pIC50
Scale: pIC50 equals -log10([C]), with [C] in mol/L.

Q: Look up pIC50: CO[C@@]12[C@H](COC(N)=O)C3=C(C(=O)C(C)=C(N)C3=O)N1C[C@@H]1N[C@@H]12 [Mitomycin C, reference compound]
Result: 7.18

Q: Look up pIC50: CC[C@]1(O)C[C@H]2CN(CCc3c([nH]c4ccccc34)[C@@](C(=O)OC)(c3cc4c(cc3OC)N(C=O)[C@H]3[C@@](O)(C(=O)OC)[C@H](OC(C)=O)[C@]5(CC)C=CCN6CC[C@]43[C@@H]65)C2)C1 [Vincristine, reference compound]
Result: 8.55

Q: Look up pIC50: N=C1NC(=O)N2CC12 (stereo not shown)
Result: 4.57

Q: Look up pIC50: `COc1cccc2c1C(=O)c1c(O)c3c(c(O)c1C2=O)C[C@@](O)(C(=O)CO)C[C@@H]3O[C@H]1C[C@H](N)[C@H](O)[C@H](C)O1`
Result: 9.37

* * *

tested on: OVCAR-3 ovarian carcinoma cells; test: In vitro antitumor activity, OVCAR-3 ovarian; assay type: cell-based, human; conditions: Homo sapiens, OVCAR-3; OVCAR3 ovarian; read-out: IC50
measurement-name: IC50 (µg/mL)
// return numeric value only (unit: µg/mL, not printed)

Q: Item: CCOC(=O)c1ccc(NC(=O)N2CC2C#N)cc1 (stereo not shown) Test system: OVCAR-3 ovarian carcinoma cells Read-out: IC50 Value: ?
Result: 1.5

Q: Item: N#CC1CN1C(=O)Nc1cccnc1 (stereo not shown) Test system: OVCAR-3 ovarian carcinoma cells Read-out: IC50 Value: ?
Result: 1.9

Q: Item: N#CC1CN1C(=O)Nc1ccc(S(N)(=O)=O)cc1 (stereo not shown) Test system: OVCAR-3 ovarian carcinoma cells Read-out: IC50 Value: ?
Result: 50

Q: Item: N#CC1CN1C(=O)Nc1ccc(Cl)cc1Cl (stereo not shown) Test system: OVCAR-3 ovarian carcinoma cells Read-out: IC50 Value: ?
Result: 0.6

Q: Item: CCCCNC(=O)N1CC1C#N (stereo not shown) [AMP 414, 2-Cyanoaziridine-1-(N-butyl)carboxamide] Test system: OVCAR-3 ovarian carcinoma cells Read-out: IC50 Value: ?
Result: 2

Q: Item: CCNC(=O)N1CC1C#N (stereo not shown) [AMP 406, 2-Cyanoaziridine-1-(N-ethyl)carboxamide] Test system: OVCAR-3 ovarian carcinoma cells Read-out: IC50 Value: ?
Result: 2

Q: Item: CC(C)(C)NC(=O)N1CC1C#N (stereo not shown) Test system: OVCAR-3 ovarian carcinoma cells Read-out: IC50 Value: ?
Result: 31.1

* * *

tested on: 8226/S myeloma cells; assay: MTT growth inhibition, parental 8226 myeloma cells; format: cell-based, human; conditions: Homo sapiens; Table 5; Sensitive (parental) 8226; read-out: IC50
Exercise: for every item that follows, state its recorded IC50.
// return numeric value only (unit: µg/mL, not printed)

Q: Look up IC50: N#CC1CN1C(=O)NC1CCCCC1 (stereo not shown)
Result: 7

Q: Look up IC50: N=C1NC(=O)N2CC12 (stereo not shown)
Result: 1

Q: Look up IC50: N#CC1CN1C(=O)Nc1ccc(Cl)cc1Cl (stereo not shown)
Result: 1.2

Q: Look up IC50: CC(=O)c1cccc(NC(=O)N2CC2C#N)c1 (stereo not shown)
Result: 1.98
